List of Ki values.
molecular target: α1 adrenalin receptor; assay: Binding test on [3H] prazosin (α1 adrenalin receptor); design: species or system rat; details: [3H] prazosin about 0.2 nM, receptor fraction of rat cerebral cortex
measurement-kind: Ki (nM)

[[record]]
compound = "CCCS(=O)(=O)NCc1ccc2ccn(C3CCN(CCc4ccc(F)cc4)CC3)c2c1"
measurement_kind = "Ki"
result_units = "nM"
quantitative_readout = 60.9

[[record]]
compound = "OC(c1ccc2c(c1)N(C1CCN(CCc3ccc(F)cc3)CC1)CC2)c1ncccn1 (stereo not drawn)"
measurement_kind = "Ki"
result_units = "nM"
quantitative_readout = 68.6

[[record]]
compound = "CCC(=O)NCc1ccc2ccn(C3CCN(CCc4ccc(F)cc4)CC3)c2c1"
measurement_kind = "Ki"
result_units = "nM"
quantitative_readout = 99


====

target: serotonin 2 receptor (Rattus norvegicus); assay: Binding test on [3H] ketanserin (serotonin 2 receptor); settings: [3H] ketanserin 0.3 nM, receptor fraction of rat cerebral cortex; read-out: 5HT2
Sequence (P14842 whole entry): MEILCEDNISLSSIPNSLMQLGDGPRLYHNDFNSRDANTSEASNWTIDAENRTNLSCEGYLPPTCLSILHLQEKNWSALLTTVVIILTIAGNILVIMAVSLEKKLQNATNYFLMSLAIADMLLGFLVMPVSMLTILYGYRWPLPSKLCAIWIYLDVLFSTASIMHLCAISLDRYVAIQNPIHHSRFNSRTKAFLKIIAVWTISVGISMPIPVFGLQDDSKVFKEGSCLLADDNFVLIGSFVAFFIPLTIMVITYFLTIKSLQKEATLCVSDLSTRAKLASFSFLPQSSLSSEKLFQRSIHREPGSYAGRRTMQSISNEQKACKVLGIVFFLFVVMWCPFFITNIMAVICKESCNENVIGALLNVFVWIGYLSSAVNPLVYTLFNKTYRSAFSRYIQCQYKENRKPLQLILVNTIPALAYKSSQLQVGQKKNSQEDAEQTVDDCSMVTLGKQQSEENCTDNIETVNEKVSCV
pKi: −log10 of the molar value. Where a name gives a salt, the structure may show the parent alone.
measurement-kind: pKi

[[record]]
compound = "COc1ccc(CCN2CCC(N3CCc4ccc(Cl)nc43)CC2)cc1 [Example 263]"
measurement_kind = "pKi"
result = "< 6.70"

[[record]]
compound = "CCN1CCN(C2CCc3ccc(OC)cc32)CC1 (stereo not drawn) [Example 251, Hydrochloride]"
measurement_kind = "pKi"
result = "< 6.70"

[[record]]
compound = "Fc1ccc(CCN2CCC(n3ccc4cc5scnc5cc43)CC2)cc1 [Example 334]"
measurement_kind = "pKi"
result = "< 7.70"


====

# minimal effective dose values compiled below
tested on: Straub's tail reaction (hyper-muscle tone in the tail); test: Morphine induced Straub's tail phenomenon in mice; format: in vivo; details: Mus musculus, ip; male ddY mice, i.p., 15 min before morphine hydrochloride 12.5 mg/kg s.c.; statistically significant (p<0.05); read-out: minimal effective dose i.p.
measurement-kind: minimal effective dose

[[record]]
compound = "Fc1ccc(CCN2CCC(C3CCc4ccccc43)CC2)cc1 (stereo not drawn)"
result = "≤ 10 mg/kg"

[[record]]
compound = "NC(=O)Cc1ccc2c(c1)N(C1CCN(CCc3ccc(F)cc3)CC1)CC2"
result = "≤ 0.3 mg/kg"

[[record]]
compound = "COc1ccc2c(c1)CCCC2C1CCN(CCc2ccc(F)cc2)CC1 (stereo not drawn)"
result = "< 1 mg/kg"

[[record]]
compound = "O/N=C/c1ccc(CCN2CCC(N3CCc4ccccc43)CC2)cc1"
result = "≤ 10 mg/kg"

[[record]]
compound = "NS(=O)(=O)c1ccc(CCN2CCC(N3CCc4ccccc43)CC2)cc1"
result = "≤ 10 mg/kg"

[[record]]
compound = "Fc1ccc(CCN2CCC(N3CCc4ccc(F)cc43)CC2)cc1"
result = "≤ 10 mg/kg"


====

Reported pKi is given for each of the following molecules.
target: serotonin 2 receptor (Rattus norvegicus); assay: Binding test on [3H] ketanserin (serotonin 2 receptor); details: [3H] ketanserin 0.3 nM, receptor fraction of rat cerebral cortex; read-out: 5HT2
pKi: −log10 of the molar value. Structures can show the parent of a compound that is named as a salt.
measurement-kind: pKi

[[record]]
molecule = "COc1ccc(CCN2CCC(n3ccc4ccc(CNC(C)=O)cc43)CC2)cc1"
measurement_kind = "pKi"
censor_symbol = "<"
quantitative_readout = 7.70

[[record]]
molecule = "Cn1cccc1-c1ccc2ccn(C3CCN(CCc4ccc(F)cc4)CC3)c2c1"
measurement_kind = "pKi"
censor_symbol = "<"
quantitative_readout = 6.70

[[record]]
molecule = "O=S1(=O)CCCN1Cc1ccc2ccn(C3CCN(CCc4ccc(F)cc4)CC3)c2c1"
measurement_kind = "pKi"
censor_symbol = "<"
quantitative_readout = 7.70

[[record]]
molecule = "O=C(NCCN1CCC(N2CCc3ccccc32)CC1)c1ccc(F)cc1"
measurement_kind = "pKi"
censor_symbol = "="
quantitative_readout = 7.52

[[record]]
molecule = "CC(=O)NCc1ccc2ccn(C3CCN(CCCCc4ccc(F)cc4)CC3)c2c1"
measurement_kind = "pKi"
censor_symbol = "<"
quantitative_readout = 7.70

[[record]]
molecule = "N#Cc1ccc(CCN2CCC(N3CCc4ccccc43)CC2)cc1"
measurement_kind = "pKi"
censor_symbol = "="
quantitative_readout = 7.37

[[record]]
molecule = "O=C(CF)NCc1ccc2ccn(C3CCN(CCc4ccccc4F)CC3)c2c1"
measurement_kind = "pKi"
censor_symbol = "="
quantitative_readout = 8.69

[[record]]
molecule = "C[C@@H]1CN(CCc2ccc(F)cc2)CC[C@@H]1N1CCc2ccccc21 (relative stereo)"
measurement_kind = "pKi"
censor_symbol = "="
quantitative_readout = 7.58

[[record]]
molecule = "OCCOc1ccc2ccn(C3CCN(CCc4ccc(F)cc4)CC3)c2c1"
measurement_kind = "pKi"
censor_symbol = "<"
quantitative_readout = 7.70

[[record]]
molecule = "OC(c1ccc2c(c1)N(C1CCN(CCc3ccc(F)cc3)CC1)CC2)c1ccc[nH]1 (centres unmarked)"
measurement_kind = "pKi"
censor_symbol = "="
quantitative_readout = 8.92

[[record]]
molecule = "Oc1ccc(CCN2CCC(N3CCc4ccccc43)CC2)cc1"
measurement_kind = "pKi"
censor_symbol = "="
quantitative_readout = 9.66

[[record]]
molecule = "CN(C)Cc1ccc2c(c1)N(C1CCN(CCc3ccc(F)cc3)CC1)CC2"
measurement_kind = "pKi"
censor_symbol = "="
quantitative_readout = 6.63

[[record]]
molecule = "CC(=O)NCc1ccc2ccn(C3CCN(CCc4ccc(C(C)O)cc4)CC3)c2c1 (centres unmarked)"
measurement_kind = "pKi"
censor_symbol = "<"
quantitative_readout = 7.70

[[record]]
molecule = "CCN1CC[C@H](N2CCc3ccccc32)[C@H](COc2ccc(F)cc2)C1 (relative stereo)"
measurement_kind = "pKi"
censor_symbol = "="
quantitative_readout = 6.87

[[record]]
molecule = "CC(=O)NCc1ccc2c(CO)cn(C3CCN(CCc4ccc(F)cc4)CC3)c2c1"
measurement_kind = "pKi"
censor_symbol = "<"
quantitative_readout = 7.70

[[record]]
molecule = "CC1CN(C2CCN(CCc3ccc(F)cc3)CC2)c2ccccc21 (centres unmarked)"
measurement_kind = "pKi"
censor_symbol = "="
quantitative_readout = 7.37

[[record]]
molecule = "CCC(=O)NCc1ccc2ccn(C3CCN(CCc4ccc(F)cc4)CC3)c2c1"
measurement_kind = "pKi"
censor_symbol = "="
quantitative_readout = 8.58

[[record]]
molecule = "COc1ccc2c(c1)N(C1CCCN(CCc3ccc(F)cc3)CC1)CC2 (centres unmarked)"
measurement_kind = "pKi"
censor_symbol = "="
quantitative_readout = 7.00

[[record]]
molecule = "O=C1CSC(=O)N1Cc1ccc2c(c1)N(C1CCN(CCc3ccc(F)cc3)CC1)CC2"
measurement_kind = "pKi"
censor_symbol = "="
quantitative_readout = 8.33

[[record]]
molecule = "O=C1CCCCN1Cc1ccc2c(c1)N(C1CCN(CCc3ccc(F)cc3)CC1)CC2"
measurement_kind = "pKi"
censor_symbol = "="
quantitative_readout = 8.34

[[record]]
molecule = "O=S(=O)(NCCN1CCC(N2CCc3ccccc32)CC1)c1ccc(Cl)cc1"
measurement_kind = "pKi"
censor_symbol = "="
quantitative_readout = 7.03

[[record]]
molecule = "O=C(Cc1ccc2ccn(C3CCN(CCc4ccc(F)cc4)CC3)c2c1)NCC(O)CO (centres unmarked) [Example 340, Oxalate]"
measurement_kind = "pKi"
censor_symbol = "="
quantitative_readout = 8.55

[[record]]
molecule = "Clc1cccc(CCN2CCC(N3CCc4ccccc43)CC2)c1"
measurement_kind = "pKi"
censor_symbol = "="
quantitative_readout = 8.09


====

biological target: serotonin 2 receptor (Rattus norvegicus); test: Binding test on [3H] ketanserin (serotonin 2 receptor); conditions: [3H] ketanserin 0.3 nM, receptor fraction of rat cerebral cortex; read-out: 5HT2
pKi: −log10 of the molar value. Counter-ions that a name gives are not always drawn.
Threshold check on pKi: at or above 8 gives True, strictly below gives False.

[[record]]
molecule = "O=C1NCCN1Cc1ccc2c(c1)N(C1CCN(CCc3ccc(F)cc3)CC1)CC2 [Example 206]"
category = "True"

[[record]]
molecule = "CCN1CCC(N2CC(Cc3ccc(F)cc3)c3ccccc32)CC1 (centres unmarked) [Example 244]"
category = "True"

[[record]]
molecule = "COc1ccc(CCN2CCC(N3CCc4ccccc43)CC2)cn1 [Example 52]"
category = "True"

[[record]]
molecule = "CC(C)Nc1ccc2c(c1)N(C1CCN(CCc3ccc(F)cc3)CC1)CC2 [Example 113]"
category = "False"

[[record]]
molecule = "O=C(CN1CCCCC1)NCc1ccc2ccn(C3CCN(CCc4ccc(F)cc4)CC3)c2c1 [Example 376]"
category = "True"

[[record]]
molecule = "CCN1CCN([C@@H]2c3ccccc3CC2N(C)Cc2ccc(F)cc2)CC1 (some centres unmarked) [Example 254]"
category = "False"

[[record]]
molecule = "CC(=O)NCc1ccc2c(C=O)cn(C3CCN(CCc4ccc(F)cc4)CC3)c2c1 [Example 370]"
category = "False"

[[record]]
molecule = "O=C(CCO)NCc1ccc2ccn(C3CCN(CCc4ccc(F)cc4)CC3)c2c1 [Example 369]"
category = "True"

[[record]]
molecule = "O=C(Cc1ccc2ccn(C3CCN(CCc4ccc(F)cc4)CC3)c2c1)NCCN1CCCC1 [Example 312, Oxalate]"
category = "True"

[[record]]
molecule = "OCCc1ccc(CCN2CCC(N3CCc4ccccc43)CC2)cc1 [Example 24]"
category = "False"

[[record]]
molecule = "CNC(=O)NCc1ccc2ccn(C3CCN(CCc4ccc(F)cc4)CC3)c2c1 [Example 397]"
category = "True"

[[record]]
molecule = "O=C(CCCN1CCC(N2CCc3ccccc32)CC1)c1ccc(F)cc1 [Example 72]"
category = "False"

[[record]]
molecule = "OC(c1ccc2c(c1)N(C1CCN(CCc3ccc(F)cc3)CC1)CC2)c1nccs1 (centres unmarked) [Example 193]"
category = "True"

[[record]]
molecule = "CS(=O)(=O)Nc1ccc2c(c1)N(C1CCN(CCc3ccc(F)cc3F)CC1)CC2 [Example 221]"
category = "True"

[[record]]
molecule = "COc1ncccc1C(O)c1ccc2c(c1)N(C1CCN(CCc3ccc(F)cc3)CC1)CC2 (centres unmarked) [Example 184]"
category = "True"

[[record]]
molecule = "CCCC(=O)NCc1ccc2ccn(C3CCN(CCc4ccc(F)cc4)CC3)c2c1 [Example 362]"
category = "True"

[[record]]
molecule = "COc1cncc(CCN2CCC(N3CCc4ccccc43)CC2)c1 [Example 53]"
category = "True"

[[record]]
molecule = "CC(O)c1ccc2ccn(C3CCN(CCc4ccc(F)cc4)CC3)c2c1 (centres unmarked) [Example 392, Oxalate]"
category = "False"

[[record]]
molecule = "OCCOc1cccc(CCN2CCC(N3CCc4ccccc43)CC2)c1 [Example 43]"
category = "False"

[[record]]
molecule = "COc1ccc(Cc2ccc3c(c2)N(C2CCN(CCc4ccc(F)cc4)CC2)CC3)cn1 [Example 189]"
category = "True"

[[record]]
molecule = "CC(=O)N1CCC(Cc2ccc3c(c2)N(C2CCN(CCc4ccc(F)cc4)CC2)CC3)CC1 [Example 168]"
category = "True"

[[record]]
molecule = "O=C(Cc1ccc2ccn(C3CCN(CCc4ccc(F)cc4)CC3)c2c1)N(CCO)CCO [Example 303, Oxalate]"
category = "False"

[[record]]
molecule = "Fc1ccc(OCCCN2CCC(N3CCc4ccccc43)CC2)cc1 [Example 69]"
category = "False"

[[record]]
molecule = "O=[N+]([O-])c1ccc(CCN2CCC(N3CCc4ccccc43)CC2)cc1 [Example 29]"
category = "False"

[[record]]
molecule = "OC(c1ccc2c(c1)N(C1CCN(CCc3ccc(F)cc3)CC1)CC2)c1cncs1 (centres unmarked) [Example 196]"
category = "True"

[[record]]
molecule = "OCCOc1cccc2c1N(C1CCN(CCc3ccc(F)cc3)CC1)CC2 [Example 123]"
category = "True"

[[record]]
molecule = "OC1(c2ccc3c(c2)N(C2CCN(CCc4ccc(F)cc4)CC2)CC3)CCC1 [Example 140]"
category = "False"


Values were extracted from patent US6579881B2.
